tested on: CP185; test: qHTS profiling for inhibitors of Plasmodium falciparum proliferation (AID 504749);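 note: 0% = DMSO vehicle and full inhibition = artemisinin control; nearly all actives have a fitted effect of over 60% in size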; details: P. falciparum in erythrocytes, SYBR Green DNA, 72 h; series mostly up to 12.8 µM
Inconclusive results are not listed. Activity calls are given as the source filed them. Calls come from the whole dose curve; as a rule, active = well fitted inhibition curve with a large enough effect; inconclusive = small, poorly fitted or top-dose-only effect; inactive = flat fitted curve, though single readings scatter.
I would appreciate it if you answered using one of these outcomes: true for active, false for inactive

## Task What call does the record list for "C[C@H](Oc1ccccc1)C(=O)N[C@@H]1C(=O)N2[C@@H]1SC(C)(C)[C@@H]2C(=O)O" ?
## Result false

## Task Hey, what did the test say about N[C@@H]1C(O)OC(CO)C(O)C1O (some centres not stated) ?
## Result false

## Task Hello, I am checking results. What call was entered for "CO[C@]1(NC(=O)[C@H](C(=O)O)c2ccc(O)cc2)C(=O)N2C(C(=O)O)=C(CSc3nnnn3C)CO[C@H]21" ?
## Result false

## Task Please let me know the test result on file for "NCc1ccccc1CC(=O)N[C@@H]1C(=O)N2C(C(=O)O)=C(CSc3nnnn3CC(=O)O)CS[C@@H]12" .
## Result false

## Task Just curious, what result did "NC[C@@H]1O[C@H](O[C@H]2[C@H](O)[C@H](O[C@@H]3O[C@H](CO)[C@@H](O)[C@H](N)[C@@H]3O)[C@@H](N)C[C@H]2N)[C@@H](O)[C@H](O)[C@@H]1O" get here?
## Result false

## Task What is the recorded call for this molecule in the test? COc1ccc2cc(C(C)CO)ccc2c1 (configuration not stated)
## Result false

## Task Please state the recorded outcome for this molecule: C[C@@H]1Cc2ccccc2N1NC(=O)c1ccc(Cl)c(S(N)=O)c1 (some centres not stated)
## Result false

## Task Test call, this molecule: C/C1=C2N=C(/C=C3N=C(/C(C)=C4\[N-]C(C)(C5N=C1C(C)(CCC(=O)NCC(C)OP(=O)([O-])O[C@H]1C(O)C(n6cnc7cc(C)c(C)cc76)O[C@@H]1CO)C5CC(N)=O)C(C)(CC(N)=O)C4CCC(N)=O)C(C)(CC(N)=O)C\3CCC(N)=O)C(C)(C)C/2CCC(N)=O.[CH2-]C1OC(n2cnc3c(N)ncnc32)C(O)C1O.[Co] (some centres not stated)
## Result false

## Task Give the logged outcome of this assay for the following molecule: "Cc1cccc(C)c1NC(=O)[C@H](C)N"
## Result false

## Task Entry NCC1CCC(N)C(O[C@@H]2C(O)[C@H](O[C@H]3OC(CO)C(O)C(N)C3O)[C@@H](N)C[C@H]2N)O1 (some centres not stated) : call = ?
## Result false

Continuing:
## Task Which outcome was entered for the molecule C[C@@H]1O[C@H](O[C@@H]2\C=C/C=C\C=C/C=C\C[C@H](C)OC(=O)/C=C\[C@H]3O[C@@H]3C[C@H](O)C[C@]3(O)C[C@@H](O)[C@@H](C(=O)O)[C@H](C2)O3)[C@@H](O)[C@H](N)[C@@H]1O (stereo in doubt) in this test?
## Result false

----------
assay: qHTS Assay for Lipid Storage Modulators (AID 1519); conditions: Drosophila S3 cells, BODIPY lipid droplet/cell ratio, laser cytometry; measured here: cell count channel max response; cells loaded with oleic acid
Results filed as inconclusive are left out.
Mark Y for max response under 10%, N if at or over.

Use the examples below as a reference point.
## Task Decide: max response of NCC1O[C@@H](O[C@H]2C(O)C(O[C@@H]3C(O[C@H]4OC(CO)C(O)C(O)C4N)C(N)CC(N)[C@H]3O)O[C@@H]2CO)C(N)C(O)C1O (stereo partly drawn) strictly below 10%?
## Result N

## Task Report whether reported max response is lower than 10% (strictly) for CC(C)C(C)/C=C/C(C)C1CCC2C3=CC=C4CC(O)CCC4(C)C3CCC21C (stereo not drawn)
## Result Y

## Task Is it true that max response reported for CCC(C(=O)O)c1ccccc1 (stereo not drawn) is less than 10%?
## Result Y

## Task Lab note: confirm whether the reported max response for this compound is below 10%, equality not counting. compound: CC1CCC(C(C)C)[C@H](OC(=O)c2ccccc2)C1 (stereo partly drawn)
## Result N

## Task Does CC(=O)SC1CC2=CC(=O)CC[C@@]2(C)C2CC[C@@]3(C)[C@@H](CC[C@@]34CCC(=O)O4)C12 (stereo partly drawn) have max response strictly under 10%?
## Result N

Continuing:
## Task Lab log: compare recorded max response with 10%; is it strictly lower for "CN1CCC2(CC1)CCN(C(=O)c1ccncc1)CC2" ?
## Result N

## Task Would you kindly verify if max response of "CC(C)(CO)[C@H](O)C(=O)NCCCO" is strictly less than 10%?
## Result Y

----------
molecular target: Cytochrome P450 2D6 (Homo sapiens); experiment: qHTS Assay for Inhibitors and Substrates of Cytochrome P450 2D6 (AID 891); conditions: recombinant CYP2D6, luciferin-ME EGE luminescence; series mostly up to 57.1 µM; note: nearly all actives have a fitted effect of over 60% in size
Records with an inconclusive call do not appear. Activity calls are given as the source filed them. Calls come from the whole dose curve; as a rule, active = well fitted inhibition curve with a large enough effect; inconclusive = small, poorly fitted or top-dose-only effect; inactive = no such curve, though single readings can be large or run the other way.
I would appreciate it if you answered using one of these outcomes: True for active, False for inactive

These solved cases illustrate the format of a correct answer.
## Task Please indicate how the test categorized "C[C@H](N[C@@H](C)COc1ccccc1)[C@H](O)c1ccc(O)cc1" .
## Result True

## Task So what was the verdict on "CC/C=C\C[C@H]1C(=O)CC[C@@H]1CC(=O)O" in this test?
## Result False

New cases:
## Task Look up the recorded call for "CCN(CC)CCOC(=O)[C@@H](c1ccccc1)C1CCCCC1" in this test.
## Result True

## Task What call does the record list for "CN(C)c1ccc(-c2nccc(NCc3ccccc3)n2)cc1" ?
## Result True

## Task Lab log entry: "Cc1cccc(CN2CCN([C@@H](c3ccccc3)c3ccc(Cl)cc3)CC2)c1" — outcome as called in the assay?
## Result True

## Task For this compound, state the assay outcome: "CN(C/C=C\c1ccccc1)Cc1cccc2ccccc12"
## Result True

----------
test: qHTS Assay for Lipid Storage Modulators (AID 1519); conditions: Drosophila S3 cells, BODIPY lipid droplet/cell ratio, laser cytometry; at 57.5 µM (top of the series); cells loaded with oleic acid; for activity change, negative = inhibition: % is set by controls: 0 for no effect and ±100 for the full control effect
Inconclusive results are not listed.
readout.kind: activity change, negative = inhibition (%)
Expressed in %, but write only the number.

## Task # get_value(readout='activity change, negative = inhibition', item= C=C1CCC(=O)C(C)CCC2C1CC2(C)C (stereo not drawn) )
## Result 1.2

## Task Given "O=c1c(O)cccc2cc(O)c(O)c(O)c12" , state its recorded activity change, negative = inhibition.
## Result 9.52

Turning now to a further record.
## Task Entry CCOC(=O)C(Cc1ccc(O)cc1)NC(C)=O (stereo not drawn) : reported activity change, negative = inhibition = ?
## Result 7.38

----------
assay: qHTS Assay for Lipid Storage Modulators (AID 1519); settings: Drosophila S3 cells, BODIPY lipid droplet/cell ratio, laser cytometry; measured here: cell count channel max response; cells loaded with oleic acid
Results filed as inconclusive are left out.
Param label: returns satisfied when max response < 10%, returns not satisfied otherwise, including exact equality.

## Task Lab log: compare recorded max response with 10%; is it strictly lower for CN(C)CCCOC1C(C(O)CO)OC2OC(C)(C)O[C@@H]21 (stereo not given in full) ?
## Result not satisfied

## Task Hello, is max response of the following compound strictly smaller than 10%? "CCC(=O)O[C@@H]1[C@H](C)O[C@H](O[C@H]2[C@@H](N(C)C)[C@H](O)[C@@H](O[C@@H]3[C@@H](CC=O)C[C@@H](C)[C@@H](O)/C=C\C=C/C[C@@H](C)OC(=O)C[C@@H](OC(=O)CC)[C@H]3OC)O[C@H]2C)C[C@]1(C)O"
## Result satisfied

## Task # TODO verify max response < 10% strictly for this compound: "COc1c(C(C)C)oc2cc3oc(=O)ccc3cc12"
## Result not satisfied

## Task Below 10% on max response? Entry COC(=O)[C@]1(C)CCC[C@]2(C)c3ccc(C(C)C)cc3C(=O)CC12 (stereo not given in full)
## Result not satisfied

## Task Strictly below 10% in max response? "CC(=O)OCC(=O)[C@@]1(OC(C)=O)[C@H](C)C[C@H]2[C@@H]3C[C@H](F)C4=CC(=O)C=C[C@@]4(C)[C@]3(F)[C@H](O)C[C@@]21C"
## Result satisfied

New cases:
## Task Consider the compound "CC(C)n1c(/C=C\[C@@H](O)C[C@@H](O)CC(=O)O)c(-c2ccc(F)cc2)c2ccccc21" . Is its max response strictly less than 10%?
## Result satisfied

## Task # TODO verify max response < 10% strictly for this compound: CC12CCCC(O)(C1)C1CC(C)(C)C1CC2 (stereo not given)
## Result satisfied

## Task API: query returns whether the compound falls strictly under 10% in max response. Query: Cn1nnnc1SCC1=C(C(=O)O)N2C(=O)C(NC(=O)C(OC=O)c3ccccc3)C2SC1 (stereo not given)
## Result not satisfied

## Task Does this compound meet the criterion max response < 10%? C[C@@]12CCC3c4ccc(OS(=O)(=O)O)cc4CCC3C1CCC2O (stereo not given in full)
## Result satisfied

## Task Item C[C@@H]1O[C@H](O[C@@H]2\C=C/C=C\C=C/C=C\C[C@H](C)OC(=O)/C=C\[C@H]3O[C@@H]3C[C@H](O)C[C@]3(O)C[C@@H](O)[C@@H](C(=O)O)[C@H](C2)O3)[C@@H](O)[C@H](N)[C@@H]1O (stereo in doubt) : max response beneath 10%, strictly?
## Result satisfied

## Task Just wondering, is max response of "CC[N+](CC)(CC)CC[C@](O)(c1ccccc1)C1CCCCC1" below 10%?
## Result satisfied

## Task Is max response strictly under 10% for the entry COC(=O)C(N)CS (stereo not given) ?
## Result not satisfied

## Task Dear reviewer, please state whether CN1CCCC1CCO[C@@](C)(c1ccccc1)c1ccc(Cl)cc1 (stereo not given in full) has max response strictly beneath 10%.
## Result satisfied

## Task Does the reported max response of "COC(=O)[C@@H]1[C@@H]2C[C@H]3c4[nH]c5cc(OC)ccc5c4CCN3C[C@@H]2C[C@H](OC(=O)/C=C\c2cc(OC)c(OC)c(OC)c2)[C@H]1OC" stay below 10%?
## Result satisfied
